Target: CRBN/DDB1 (Homo sapiens (Human))
Sequence (Q96SW2 whole entry): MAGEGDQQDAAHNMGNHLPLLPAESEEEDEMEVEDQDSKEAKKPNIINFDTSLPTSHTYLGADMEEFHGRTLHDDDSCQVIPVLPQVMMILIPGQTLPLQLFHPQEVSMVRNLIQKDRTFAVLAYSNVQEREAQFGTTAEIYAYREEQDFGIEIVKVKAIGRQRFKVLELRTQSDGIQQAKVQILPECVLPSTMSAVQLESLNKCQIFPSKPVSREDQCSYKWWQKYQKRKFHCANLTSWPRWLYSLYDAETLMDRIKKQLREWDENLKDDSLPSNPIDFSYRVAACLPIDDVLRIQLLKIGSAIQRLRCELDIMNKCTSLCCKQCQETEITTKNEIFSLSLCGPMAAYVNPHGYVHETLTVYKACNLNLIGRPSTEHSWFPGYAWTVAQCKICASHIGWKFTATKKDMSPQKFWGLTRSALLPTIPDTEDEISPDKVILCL
Sequence (Q16531 whole entry partner): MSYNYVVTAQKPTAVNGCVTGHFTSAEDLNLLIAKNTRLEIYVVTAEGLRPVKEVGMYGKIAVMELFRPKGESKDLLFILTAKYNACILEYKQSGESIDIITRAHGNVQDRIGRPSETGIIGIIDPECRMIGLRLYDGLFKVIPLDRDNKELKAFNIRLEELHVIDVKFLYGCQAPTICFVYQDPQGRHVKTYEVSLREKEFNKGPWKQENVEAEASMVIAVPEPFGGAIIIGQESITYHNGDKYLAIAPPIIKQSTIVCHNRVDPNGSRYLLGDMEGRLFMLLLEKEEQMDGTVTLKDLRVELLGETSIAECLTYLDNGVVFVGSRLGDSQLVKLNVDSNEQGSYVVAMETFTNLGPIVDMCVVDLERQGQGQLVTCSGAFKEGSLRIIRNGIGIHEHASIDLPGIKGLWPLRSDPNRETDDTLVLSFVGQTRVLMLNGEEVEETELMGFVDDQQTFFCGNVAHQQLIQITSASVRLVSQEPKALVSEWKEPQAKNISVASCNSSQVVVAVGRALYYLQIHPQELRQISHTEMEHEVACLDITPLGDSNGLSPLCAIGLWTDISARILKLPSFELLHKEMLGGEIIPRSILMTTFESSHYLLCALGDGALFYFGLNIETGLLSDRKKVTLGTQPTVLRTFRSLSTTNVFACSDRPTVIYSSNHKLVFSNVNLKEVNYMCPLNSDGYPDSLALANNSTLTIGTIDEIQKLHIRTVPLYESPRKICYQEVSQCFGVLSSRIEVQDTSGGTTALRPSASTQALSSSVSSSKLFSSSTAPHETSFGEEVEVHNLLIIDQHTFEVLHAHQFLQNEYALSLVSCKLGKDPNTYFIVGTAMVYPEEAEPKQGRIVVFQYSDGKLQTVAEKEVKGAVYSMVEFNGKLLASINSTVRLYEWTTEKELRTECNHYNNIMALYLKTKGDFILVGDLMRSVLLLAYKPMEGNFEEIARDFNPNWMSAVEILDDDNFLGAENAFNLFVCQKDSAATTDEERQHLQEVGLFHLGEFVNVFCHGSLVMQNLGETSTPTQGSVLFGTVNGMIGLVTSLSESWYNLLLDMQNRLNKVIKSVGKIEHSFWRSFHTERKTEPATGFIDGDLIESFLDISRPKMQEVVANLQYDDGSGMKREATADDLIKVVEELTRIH
Test: HTRF binding assay to CRBN/DDB1
Details: read-out: CRBN HTRF IC50
IC50 listing for selected molecules.

See these solved cases before continuing.
MOLECULE	IC50
O=C1CC[C@H](N2Cc3c(ccc4c3OC[C@H]3CN(CC5CCC6(CC5)CN(c5ccc([C@@H]7c8ccc(O)cc8OC[C@@H]7c7ccccc7)cc5)C6)CCN43)C2=O)C(=O)N1 (single isomer, unassigned)	50 to 500 nM
COc1nc(C(=O)NC2CCC(=O)NC2=O)ccc1N1CCN(CC2CCN(c3ccc([C@H]4c5ccc(O)cc5OC[C@H]4c4ccccc4)cc3F)CC2)CC1 (single isomer, unassigned)	500 to 5000 nM
O=C1CCC(N2Cc3c(ccc4c3OC[C@H]3CN(CC5CCN(c6ccc([C@H]7c8ccc(O)cc8OC[C@H]7c7ccccc7)cn6)CC5)CCN43)C2=O)C(=O)N1 (single isomer, unassigned)	50 to 500 nM

Asked: Field: IC50 (CRBN/DDB1 (Homo sapiens (Human))). Entry: O=C1CCC(NC(=O)c2ccc3c(n2)OC[C@H]2CN(CC4CCN(c5ccc([C@@H]6c7ccc(O)cc7OC[C@@H]6c6ccccc6)cc5F)CC4)CCN32)C(=O)N1 (single isomer, unassigned)
Given back: 500 to 5000 nM

Asked: Next record, please: COc1cc(N2CCC(CN3CCN4c5ccc(C(=O)NC6CCC(=O)NC6=O)nc5OC[C@H]4C3)CC2)ccc1C1c2ccc(O)cc2OCC1c1ccccc1 (stereo in doubt)
Given back: 500 to 5000 nM

---

Biological target: CRBN/DDB1 (Homo sapiens (Human))
Assay: HTRF binding assay to CRBN/DDB1
Conditions: CRBN HTRF IC50 (nM)
RESULT TYPE: IC50

Asked: Record O=C1CCC(N2Cc3cc(N4CCN(CC5CC6(CCN(c7ccc([C@@H]8c9ccc(O)cc9OC[C@@H]8c8ccccc8)cn7)CC6)C5)CC4)ccc3C2=O)C(=O)N1 (single isomer, unassigned) : what is its IC50 with CRBN/DDB1 (Homo sapiens (Human))?
Given back: > 5000 nM

---

Molecular target: CRBN/DDB1 (Homo sapiens (Human))
Assay: HTRF binding assay to CRBN/DDB1
Settings: read-out: CRBN HTRF IC50
RESULT TYPE: IC50

The following compounds have reported results that may help.
COMPOUND	IC50
COc1cc(N2CCC(CN3CCN(c4ccc(C(=O)NC5CCC(=O)NC5=O)nc4)CC3)CC2)c(F)cc1[C@H]1c2ccc(O)cc2OC[C@H]1c1ccccc1 (some centres unmarked) [Compound A109]	> 5 µM
Cc1nn(C2CCC(=O)NC2=O)c2ccc(N3CCN(CC4CC5(CCN(c6ccc([C@H]7c8ccc(O)cc8OC[C@H]7c7ccccc7)cc6)CC5)C4)CC3)cc12 (single isomer, unassigned)	0.05 to 0.5 µM
O=C1CCC(Nc2ccc(C3CCN(CC4CC5(CCN(c6ccc([C@@H]7c8ccc(O)cc8OC[C@@H]7c7ccccc7)cc6)CC5)C4)CC3)c(F)c2)C(=O)N1 (single isomer, unassigned)	0.05 to 0.5 µM

Asked: Field request: IC50 | item: O=C1CCC(N2C(=O)c3cc4c(cc3C2=O)CN(CC(=O)N2CCC3(CC2)CN(c2ccc([C@H]5c6ccc(O)cc6OC[C@H]5c5ccccc5)cc2)C3)C4)C(=O)N1 (single isomer, unassigned)
Given back: 0.05 to 0.5 µM

Asked: Moving on to O=C1CCC(N2Cc3cc(N4CCN(CC5CCN(c6ccc([C@@H]7c8ccc(O)cc8OC[C@@H]7c7ccccc7)cc6)CC5)CC4)ccc3C2=O)C(=O)N1 (single isomer, unassigned)
Given back: 0.05 to 0.5 µM
